Assay Target: the molecule itself
Assay Info: native gel or EMSA; 35S-labelled σNS expressed in rabbit reticulocyte lysate, incubated without RNase A (125 mM NaCl) at 37°C for 1 h; blue native PAGE, 4-16% bis-Tris, 4°C; autoradiography; RNA of the lysate present, the ladders of oligomers are RNA-dependent
Experimental Readout: stoichiometry N
Please give the numeric answer without any surrounding text.

Data point: σNS Y25A, in vitro expressed (natural protein, [35S]methionine-labelled, nonstructural protein σNS of mammalian orthoreovirus (reovirus) strain T3D, S3 gene; same plasmid as m6; also called Y25A σNS; source: in vitro translated (TNT T7 polymerase-coupled rabbit reticulocyte lysate), not purified) MASSLRAAISKIKRDDVGQQVCPNAVMLRSSVTTKVVRNVVEYQIRTGGFFSCLAMLRPLQYAKRERLLGQRNLERISTRDILQTRDLHSLCMPTPDAPMSNHQASTMRELICSYFKVDHADGLKYIPMDERYSPSSLARLFTMGMAGLHITTEPSYKRVPIMHLAADLDCMTLALPYMITLDGDTVVPVAPTLSAEQLLDDGLKGLACMDISYGCEVDANSRPAGDQSMDSSRCINELYCEETAEAICVLKTCLVLNCMQFKLEMDDLAHNAAELDKIQMMIPFSERVFRMASSFATIDAQCFRFCVMMKDKNLKIDMRETTRLWTRSASDDSVATSSLSISLDRGRWVAADASDARLLVFPIRV ; stoichiometry N = 2
